Entries and their measured Kd follow.
- assayedSystem: cyno MSLN (Macaca fascicularis)
- protocolDescription: BLI (Octet), bsAb in 1+1 Fab-scFv-Fc format
readoutLabel: Kd (nM)

1) XENP32566 (bispecific antibody, part only; not given: anti-CD3 scFv-Fc arm, constant regions, V domains shown, not shown: another chain or arm of the molecule; a dimerising Fc or GST; small tags and cut ends) VH: QVQLVQSGAEVKKPGASVKVSCKASGYTFTSYWMHWVRQAPGQGLEWMGMIHPNSDNTIYYEKFQGRVTMTVDKSISTAYMELSRLRSDDTAVYYCAIIITPVVPKFDYWGQGTLVTVSS VL: DIVMTQSPDSLAVSLGERATINCKASHDVGTSVAWYQQKPGQSPKLLIYWASTRHSGVPDRFTGSGSGTDFTLTISSLQAEDVAVYFCQQYSSYPLTFGAGTKLEIK : 0.163
2) XENP32558 (bispecific antibody, part only; not given: anti-CD3 scFv-Fc arm, constant regions, V domains shown, not shown: another chain or arm of the molecule; a dimerising Fc or GST; small tags and cut ends) VH: QVQLVQSGAEVKKPGASVKVSCKASGYTFTSYWMHWVRQAPGQGLEWMGMIHPNSDNTIYYEKFQGRVTMTVDKSISTAYMELSRLRSDDTAVYYCAIIITPVVPRFDYWGQGTLVTVSS VL: DIVMTQSPDSLAVSLGERATINCKASHDVGTSVAWYQQKPGQSPKLLIYWASTRHTGVPDRFTGSGSGTDFTLTISSLQAEDVAVYFCQQYSSYPLTFGAGTKLEIK : 0.7
3) XENP32559 (bispecific antibody, part only; not given: anti-CD3 scFv-Fc arm, constant regions, V domains shown, not shown: another chain or arm of the molecule; a dimerising Fc or GST; small tags and cut ends) VH: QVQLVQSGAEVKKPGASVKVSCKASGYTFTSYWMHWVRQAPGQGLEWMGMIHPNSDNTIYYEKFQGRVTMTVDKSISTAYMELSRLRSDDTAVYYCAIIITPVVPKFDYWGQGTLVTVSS VL: DIVMTQSPDSLAVSLGERATINCKSSHDVGTSVAWYQQKPGQSPKLLIYWASTRHTGVPDRFTGSGSGTDFTLTISSLQAEDVAVYFCQQYSSYPLTFGAGTKLEIK : 0.223
